Recorded measurements of yeast fitness, one per entry
B1: tRNA (parent)
chain: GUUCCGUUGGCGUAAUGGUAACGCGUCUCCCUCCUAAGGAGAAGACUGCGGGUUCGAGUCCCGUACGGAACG

# Variants of: B1
# assay: yeast fitness relative to wild type (ratio to wild type); higher = fitter; tRNA-Arg(CCU), competitive growth, 37 C, YPD
Variants at the floor of the assay were thinned out.

I'd like to know its yeast fitness. The variant in question is GUUCCGUUGGCGUAAUGGAAACGCGUCUCCGUCCUAAGGAGAAGACUGCGGGUUCGAGUCCCGUACGGAUCG [U19A C31G A70U]
0.919

Consider next the variant GUUCCGUUGGCGUAAUGGUAACGCGUCUCCCAGCUAAGGAGAAGACUGCGGGUUCGAGUCCCGUACGGAACG [U32A C33G] in the same way.
0.706

Consider next the variant GUUUGGUUGGCGUAAUGGUAACGCGUCUUCCAUCUAAGGAGAAGACUGCGGGUUCGAGUCCCGUACUGAGCG [C4U C5G C29U U32A C33U G67U A70G] in the same way.
0.54

Consider next the variant GUUCCAUUGGCGUAAUCGCAACGCGUCUACCUCCUAAGGAGAAGACUGCGGGUUCGAGUCCCGUACGGAGCG [G6A G17C U19C C29A A70G] in the same way.
≤ 0.5

Consider next the variant GUUGCAUUGGUGUAAUGGUAACACGUCUCCCUCCUAAGGAGAGGACUGCGGGUUCGAGUCCCGUACGGAACG [C4G G6A C11U G23A A43G] in the same way.
≤ 0.5

Consider next the variant GUUCCGUUGGGGUAAUGGUAACGCGUCUCGGACCUAAGGAGAAGACUGCGGGUUGGAGUCCCGUACAGAACG [C11G C30G C31G U32A C55G G67A] in the same way.
0.696

Consider next the variant GUUCUGUUGGCGUAAUGGUAACGCGUCUCCCUCCUAACCGGAAAAGUGCGGAUUCGAGUCCCGUACGGAACG [C5U G38C G39C A40G G44A C46G G52A] in the same way.
≤ 0.5

Consider next the variant GUUCCGUUGGGGUCAUGGUAACGCGUCUCCCUCCUACGGAGAACACUGCGGGUUCGAGUCGCCUACGGAACG [C11G A14C A37C G44C C61G G63C] in the same way.
≤ 0.5

Others:
I'd like to know its yeast fitness. The variant in question is GUUCCGUUGGAGUAAUGGAAACGCGUCUACCACCUAAGGAGAAGACUCCGGGUUGGAGUCCCGUACGGAACG [C11A U19A C29A U32A G48C C55G]
≤ 0.5

Consider next the variant GUUCCGUUGGAGUAAUGGUAACGCGUCUCCCUCCUAAGGAGAAGACUGCCGGUUCGAGUCCCGUACGGAACG [C11A G50C] in the same way.
≤ 0.5
